# 5'-nucleotidase (Rattus norvegicus, UniProt P21588): IC50 values follow
# Sequence (P21588 whole entry): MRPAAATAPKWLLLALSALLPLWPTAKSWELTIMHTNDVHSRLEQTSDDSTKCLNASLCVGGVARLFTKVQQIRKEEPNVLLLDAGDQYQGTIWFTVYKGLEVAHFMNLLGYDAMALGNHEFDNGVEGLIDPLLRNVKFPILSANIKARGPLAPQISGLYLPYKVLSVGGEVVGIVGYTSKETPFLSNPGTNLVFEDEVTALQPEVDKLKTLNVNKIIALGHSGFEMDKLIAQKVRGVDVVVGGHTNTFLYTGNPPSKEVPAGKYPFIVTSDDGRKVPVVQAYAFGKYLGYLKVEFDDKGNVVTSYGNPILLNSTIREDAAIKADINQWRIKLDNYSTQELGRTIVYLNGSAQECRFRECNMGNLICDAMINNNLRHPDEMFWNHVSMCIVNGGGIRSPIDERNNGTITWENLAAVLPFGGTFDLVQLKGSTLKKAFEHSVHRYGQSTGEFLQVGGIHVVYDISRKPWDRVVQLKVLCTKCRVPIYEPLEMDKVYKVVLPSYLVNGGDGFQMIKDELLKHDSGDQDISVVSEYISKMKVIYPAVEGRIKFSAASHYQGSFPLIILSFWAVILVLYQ
Recorded metric: IC50 (µM)

# Chemical string, Recorded metric, Measured number
rows = [
    ("COc1cc(/C=C/C(=O)/C(=N/Nc2ccc(S(N)(=O)=O)cc2)N2CCOCC2)cc(OC)c1OC", "IC50", 0.68),
    ("NS(=O)(=O)c1ccc(N/N=C(/C(=O)/C=C/c2ccccc2Br)N2CCOCC2)cc1", "IC50", 22.4),
    ("NS(=O)(=O)c1ccc(N/N=C(/C(=O)/C=C/c2ccccc2Cl)N2CCOCC2)cc1", "IC50", 6.43),
    ("NS(=O)(=O)c1ccc(N/N=C(/C(=O)/C=C/c2ccc(Cl)cc2Cl)N2CCOCC2)cc1", "IC50", 2.85),
]
